Reference source for all entries: PubChem BioAssay

- procedureText: PSAC antagonists in infected red cells, primary screen, cell-based, P. falciparum Indochina, OD700, 1 h (AID 1154)
- settings: P. falciparum Indochina infected RBC osmotic lysis, higher = more signal, called active from +8 up or from −8 down
The source made the active and inactive calls.
Kindly supply the reported z-score values for the records listed here.

The measured z-score associated with "CCOC(=O)C[C@H]1[C@H](OC(=O)Cc2ccc3c(c2)OCO3)[C@@H](NC(=O)Cc2ccc(OC)cc2)c2cc(OCCCO)ccc2N1C(=O)c1ccccc1" reads 1.8 (inactive)

The measured z-score associated with "CC(C)C(=C=CC[C@H](O)c1ccc(OCCO)cc1)C[C@H](O)c1cc(Cl)cc(Cl)c1O" reads 19.4 (active)

The measured z-score associated with "COC(=O)[C@@]1(Cc2ccc(F)cc2)[C@H]2c3cc(C(=O)N4CCCC4)n(CCF)c3C[C@H]2CN1C(=O)c1ccccc1" reads 6.17 (inactive)

The measured z-score associated with COc1ccc(C(O)C2C=CC3C(=O)N(c4ccccc4)C(=O)C3N2Nc2ccc(C#N)cc2)c2ccccc12 (stereo not given) reads 9.06 (active)

The measured z-score associated with "C=C[C@@H](COC(C)=O)NS(=O)(=O)c1ccc(Br)cc1" reads -0.0045 (inactive)

The measured z-score associated with "C=CCOC(=O)[C@@H]1[C@H]2C(=O)O[C@H](c3ccccc3)[C@H](c3ccccc3)N2[C@H](c2ccc(OCCOC(=O)[C@H]3C[C@H]4C(=O)N[C@@H](CCCCN(C)C)C(=O)N4[C@H]3c3cccc(OCCO)c3)cc2)[C@@]12C(=O)Nc1ccc(I)cc12" reads 1.19 (inactive)

The measured z-score associated with C[C@H]1C2=C3C(CC[C@H]4C(OCc5ccc(F)cc5C(F)(F)F)OC[C@](C)([C@@H]34)N(C(=O)OC(C)(C)C)C2)C2COC(=O)OCC21 (stereo not given in full) reads 2.68 (inactive)

The measured z-score associated with "C=CCN1C(=O)[C@]2(CC=C)N=C(c3ccc(OCCCO)cc3)O[C@@H]2c2ccccc21" reads 33.2 (active)

The measured z-score associated with C=C1C2CC3C(=C4C(CO[C@@H]4[C@H]4CCCN4S(=O)(=O)c4ccccc4[N+](=O)[O-])C4C(=O)N(C)C(=O)C34)CC2C(=O)N1C (stereo not given in full) reads 4.07 (inactive)

The measured z-score associated with "C[C@]1(C(=O)NC2CC2)c2ccccc2C(=O)N(Cc2ccc(OC(F)(F)F)cc2)[C@H]1c1ccc(CO)cc1" reads 3.33 (inactive)

The measured z-score associated with CC(C)C(O)C1C=CC2C(=O)N(C)C(=O)C2N1Nc1ccccc1 (stereo not given) reads -0.162 (inactive)

The measured z-score associated with O=C1OCC=C[C@H]2OC34C=CCN(Cn5nnc6ccccc65)C(=O)[C@H]3N(CCCCCCO)C(=O)[C@@H]4[C@@H]12 (stereo not given in full) reads 1.99 (inactive)

The measured z-score associated with "NC(N)=NCc1cn(CCc2c[nH]c3ccccc23)nn1" reads 0.488 (inactive)

The measured z-score associated with "Cc1ccc(F)cc1S(=O)(=O)N[C@@H]1CCN(Cc2ccc(OC(C)C)cc2)C1" reads 2.14 (inactive)

The measured z-score associated with "CN(C)CCCNC(=O)[C@@H]1c2ccccc2C(=O)N(CC23CC4CC(CC(C4)C2)C3)[C@H]1c1ccc(CO)cc1" reads 1.1 (inactive)
